Value source: the RNAGym collection of RNA variant scans (doi:10.7554/elife.90254)

Reported self-cleavage values follow for various variants
B1: OR4K15 (parent)
chain: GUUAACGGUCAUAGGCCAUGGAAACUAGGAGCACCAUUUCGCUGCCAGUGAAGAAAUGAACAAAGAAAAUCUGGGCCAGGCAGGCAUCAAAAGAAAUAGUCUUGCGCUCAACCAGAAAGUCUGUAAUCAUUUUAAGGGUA

variants of: B1; experiment: self-cleavage, relative activity (ratio to wild type); higher = more cleavage; in vitro, sequencing; the parent is a self-cleaving ribozyme
Give the figure only, with no unit attached.

Reference set, count: 3
Sequence: GUUGACGGUCAUAGGCCAUGGAAACUAGGAGCACCAUUGCGCUGCCAGUGAAGAAAUGAACAAAGAAAAUCUGGGCCAGGCAGGCAUCAAAAGAAAUAGUCUUGCGCUCAACCAGAAAGUCUGUAAUCAUUUUAAGGGUA
self-cleavage: 1.88
--
Sequence: GUUAACGGUCAUAGGCCAUGGAAACUAGGAGCACCAUUUCGCUGCCAGUGAAGAAAUGAACAAAGAAAAUCUGGGCCAGGCAGGCAUCAAAGGAAAUAGUCUUGCGCUCAACCAGAAAGUCUGUAAUCAUUUUAAGGGUA
self-cleavage: 1.15
--
Sequence: GUUAACGGUCAUAGGCCAUGGAAACUAGGAGCACCAUUUCGCUGCCAGUGAAGAAAUGAACAAAGAAAAUCUGGGCCAGGCAGGCAUCAAAAGAAAUAGUCUCGCGCUCAACCAGAAAGUCUGUGAUCAUUUUAAGGGUA
self-cleavage: 0.69

Measured self-cleavage of GUUAACGGUCAUAGGCCAUGGAAACUAGGAGCACCAUUUCGCUGCCAGUGAAGAAAUGAACAAAGAAAAUCUGGGCCAGGCAGGCAUCAAGAGAAAUAGUCUUGCGCUCAACCAGAAAGUCGGUAAUCAUUUUAAGGGUA : 2.58

Measured self-cleavage of GUUAACGGUCAUUGGCCAUGGAAACUAGGAGCACCAUUUCGCUGCCAGUGAAGAAAUGAACAGAGAAAAUCUGGGCCAGGCAGGCAUCAAAAGAAAUAGUCUUGCGCUCAACCAGAAAGUCUGUAAUCAUUUUAAGGGUA : 1.3

Measured self-cleavage of GUUAACGGUCAUAGGCCAUGGAGACUAGGAGCACCAUUUCGCUGCCAGUGAAGAAAUGAACAAAGAAAAUCUGGGCCAGGCAGGCAUCAAAAGAAAUAGUCUUGCGCUCAACCAGGAAGUCUGUAAUCAUUUUAAGGGUA : 0.47

Measured self-cleavage of GGUAACGGUCAUAGGCCAUGGAAACUAGGAGCACCAUUUCGCUGCCAGUGAAGAAAUGAACAAAGAAGAUCUGGGCCAGGCAGGCAUCAAAAGAAAUAGUCUUGCGCUCAACCAGAAAGUCUGUAAUCAUUUUAAGGGUA : 0.43

Measured self-cleavage of GUUAACGGUCAUAGGCCAUGGAAACUAGGAGCACCAUUUCGCUGCCAGUGAAGAAAUGAACAAAGAAAAUCUGGGCCAGGCAGGCAUCAAAAGAAAUAGUCUUGCGCUCAACCAGAAAGUCCGUAAUCAUUAUAAGGGUA : 0.43

Measured self-cleavage of GUUAACGGUCAUAGGCCAUGGAAACCAGGAGCACCAUUUCGCUGCCAGUGAAGAAGUGAACAAAGAAAAUCUGGGCCAGGCAGGCAUCAAAAGAAAUAGUCUUGCGCUCAACCAGAAAGUCUGUAAUCAUUUUAAGGGUA : 1.43

Measured self-cleavage of GUUAACGGUCAUAGGCCAUGGAAACUAGGUGCACCAUUUCGCUGCCAGUGAAGAAGUGAACAAAGAAAAUCUGGGCCAGGCAGGCAUCAAAAGAAAUAGUCUUGCGCUCAACCAGAAAGUCUGUAAUCAUUUUAAGGGUA : 0.82

Measured self-cleavage of GUUAACGGUCAUAGGCCAUGGAAAAUAGGAGCACCGUUUCGCUGCCAGUGAAGAAAUGAACAAAGAAAAUCUGGGCCAGGCAGGCAUCAAAAGAAAUAGUCUUGCGCUCAACCAGAAAGUCUGUAAUCAUUUUAAGGGUA : 1.03

Measured self-cleavage of GUUAACGGUCAUGGGCCAUGGAAACUAGGAGCACCAUUUCGCUGCCAGUGAAGAAAUGAACAAAGAAAAUCUGGGCCAGGCAGGCAUCAAAAGAAACAGUCUUGCGCUCAACCAGAAAGUCUGUAAUCAUUUUAAGGGUA : 0.78
